# TARGET ENTITY: Neutrophil Lipoxygenase (Cavia porcellus, UniProt A0A286X958)
# Construct: endogenous in cells; host or cells: guinea pig peritoneal neutrophils
# Sequence (A0A286X958 1-674): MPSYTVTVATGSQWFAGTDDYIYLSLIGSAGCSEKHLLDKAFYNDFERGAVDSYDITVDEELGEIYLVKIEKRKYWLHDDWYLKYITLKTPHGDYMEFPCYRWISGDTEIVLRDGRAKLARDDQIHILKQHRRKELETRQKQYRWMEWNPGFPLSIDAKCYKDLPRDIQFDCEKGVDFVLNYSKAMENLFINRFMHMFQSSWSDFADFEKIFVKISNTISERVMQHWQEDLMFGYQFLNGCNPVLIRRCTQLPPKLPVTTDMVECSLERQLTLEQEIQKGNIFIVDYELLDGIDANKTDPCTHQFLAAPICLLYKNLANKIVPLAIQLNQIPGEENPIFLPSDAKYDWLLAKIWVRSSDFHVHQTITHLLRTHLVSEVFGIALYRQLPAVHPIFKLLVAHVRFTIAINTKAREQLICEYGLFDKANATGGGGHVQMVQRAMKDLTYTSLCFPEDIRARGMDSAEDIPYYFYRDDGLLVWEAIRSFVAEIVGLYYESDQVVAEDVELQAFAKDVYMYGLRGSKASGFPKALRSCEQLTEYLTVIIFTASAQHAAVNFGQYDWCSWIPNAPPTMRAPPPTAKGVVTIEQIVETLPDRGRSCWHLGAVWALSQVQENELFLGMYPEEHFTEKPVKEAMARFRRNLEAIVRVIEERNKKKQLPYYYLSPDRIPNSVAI
# EXPERIMENTAL PROTOCOL: Inhibition of neutrophil lipoxygenase (release and biosynthesis of LTB4 and 5-HETE) in guinea pig peritoneal neutrophils
# Format: cell-based
# RUN CONDITIONS: 10 μg/ml, 100 μM arachidonic acid and 20 μM A23187, the lower the percentage, the more active, read-out: LTB4, % of Control
READOUT NAME: remaining activity at 10 µg/mL (%)
Kindly answer with a numeric value in %, unit omitted.

[[record]]
compound = "CCOC(=O)N1CCN(C2=C(Cl)C(=O)c3nsnc3C2=O)CC1"
readout_name = "remaining activity at 10 µg/mL"
observed = 39.3

[[record]]
compound = "COc1ccc(OC)c2[nH]c(-c3ccc(Cl)cc3)nc12"
readout_name = "remaining activity at 10 µg/mL"
observed = 87

[[record]]
compound = "O=CN1CCN(C2=C(Cl)C(=O)c3nsnc3C2=O)CC1"
readout_name = "remaining activity at 10 µg/mL"
observed = 90.8

[[record]]
compound = "O=C1C(Cl)=C(N2CCN(c3cccc(C(F)(F)F)c3)CC2)C(=O)c2nsnc21"
readout_name = "remaining activity at 10 µg/mL"
observed = 14.6

[[record]]
compound = "Oc1ccc(O)c2[nH]c(-c3ccccc3)nc12 [2-Phenyl-1 --H--benzimidazole-4,7-diol, 2-Phenyl-1H-benzimidazole-4,7-diol]"
readout_name = "remaining activity at 10 µg/mL"
observed = 33.9


Tell me its remaining activity at 10 µg/mL given COc1ccc(OC)c2[nH]c(-c3ccccc3)nc12 [4,7-Dimethoxy-2-phenyl-1H-benzimidazole] as the entry.
8

Tell me its remaining activity at 10 µg/mL given `O=C1C(Cl)=C(N2CCN(c3nc4ccccc4o3)CC2)C(=O)c2nsnc21` as the entry.
25.8
